- Tested System: Transient receptor potential cation channel subfamily V member 1 (Rattus norvegicus)
- Sequence (O35433 whole entry): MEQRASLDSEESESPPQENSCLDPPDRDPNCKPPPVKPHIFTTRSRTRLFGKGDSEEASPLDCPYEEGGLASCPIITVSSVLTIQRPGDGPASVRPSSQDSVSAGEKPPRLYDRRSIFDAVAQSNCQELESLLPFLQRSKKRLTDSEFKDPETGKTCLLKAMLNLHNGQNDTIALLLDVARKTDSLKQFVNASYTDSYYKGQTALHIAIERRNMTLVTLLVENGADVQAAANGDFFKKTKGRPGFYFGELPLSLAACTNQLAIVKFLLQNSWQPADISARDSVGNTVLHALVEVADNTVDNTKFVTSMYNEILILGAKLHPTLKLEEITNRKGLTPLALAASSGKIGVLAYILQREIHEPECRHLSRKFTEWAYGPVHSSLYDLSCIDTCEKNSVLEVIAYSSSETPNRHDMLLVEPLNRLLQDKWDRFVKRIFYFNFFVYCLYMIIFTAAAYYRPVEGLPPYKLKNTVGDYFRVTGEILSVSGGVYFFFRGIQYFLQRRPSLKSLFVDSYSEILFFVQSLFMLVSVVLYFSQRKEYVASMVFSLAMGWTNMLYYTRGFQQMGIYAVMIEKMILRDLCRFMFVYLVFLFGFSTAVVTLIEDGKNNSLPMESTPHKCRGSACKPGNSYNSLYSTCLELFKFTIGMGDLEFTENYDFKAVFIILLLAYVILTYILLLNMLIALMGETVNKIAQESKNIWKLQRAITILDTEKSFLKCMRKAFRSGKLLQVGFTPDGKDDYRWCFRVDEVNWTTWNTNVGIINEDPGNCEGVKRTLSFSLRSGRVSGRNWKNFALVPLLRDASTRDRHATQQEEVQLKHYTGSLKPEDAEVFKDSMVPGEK
- Experimental Details: Antagonist activity at rat TRPV1 expressed in human SH-SY5Y cells assessed as reduction in capsaicin-induced intracellular calcium accumulation preincubated with cells followed by capsaicin addition by Fluo-4 NW dye based fluorescence assay
Value Type: IC50 (nM)
The reply should be a number in nM, with the unit left off.

Enquiry: Return IC50 measured with Transient receptor potential cation channel subfamily V member 1 (Rattus norvegicus) given this molecule: `COc1cc(CNC(=O)COC(=O)/C=C(\C)CCC=C(C)C)c(I)cc1O`
Return: 320

----------
- Tested System: UniProtKB O35433
- Experimental Details: Agonist activity at rat TRPV1 expressed in human SH-SY5Y cells assessed as intracellular calcium accumulation by Fluo-4 NW dye based fluorescence assay
Value Type: EC50 (nM)
The reply should be a number in nM, with the unit left off.

Enquiry: Query (compound): `CC(C)=CCC/C(C)=C/CC/C(C)=C/CC/C=C(\C)CC/C=C(\C)CCC(=O)OCC(=O)NCc1ccc(O)c(O)c1` ; field requested: EC50
Return: 15
